Run Description: Oil-water partition coefficient (Log P)
Type: physicochemical
Stated Conditions: Water, 25℃
Property Label: logP
Please give only the number in your answer, with no unit.

### Prompt What does the data say about its logP? Entry: C=C1CC[C@@H]2[C@](C)(CO)[C@H](O)CC[C@@]2(C)[C@@H]1C/C=C1/C(=O)OC[C@H]1O [ADR, andrographolide]
### Response 1.78

====

Run Description: Oil-water partition coefficient (Log P)
Type: physicochemical
Stated Conditions: pH 1.2, pH1.2, 37℃
Property Label: logP

### Prompt Return reported logP; argument: C=C1CC[C@@H]2[C@](C)(CO)[C@H](O)CC[C@@]2(C)[C@@H]1C/C=C1/C(=O)OC[C@H]1O [ADR, andrographolide]
### Response 1.84

====

Run Description: Pharmacokinetic study after gavage
Format: in vivo
Stated Conditions: rat, po; SD rats, 50 mg/kg by gavage, plasma
Property Label: half-life (h)
Provide the reading as a plain figure in h.

### Prompt Look at this molecule and give its reported half-life. C=C1CC[C@@H]2[C@](C)(CO)[C@H](O)CC[C@@]2(C)[C@@H]1C/C=C1/C(=O)OC[C@H]1O [ADR, andrographolide]
### Response 2.81

====

Run Description: Pharmacokinetic study after gavage
Format: in vivo
Stated Conditions: rat, po; SD rats, 50 mg/kg by gavage, plasma
Property Label: AUC(0-inf) (ng·h/mL)
Reply with just the number (in ng·h/mL).

### Prompt What measured AUC(0-inf) goes with C=C1CC[C@@H]2[C@](C)(CO)[C@H](O)CC[C@@]2(C)[C@@H]1C/C=C1/C(=O)OC[C@H]1O [ADR, andrographolide] ?
### Response 1290

====

Run Description: Oil-water partition coefficient (Log P)
Type: physicochemical
Stated Conditions: Water, 37℃
Property Label: logP
Please reply with the value in numeric form only.

### Prompt Report logP for C=C1CC[C@@H]2[C@](C)(CO)[C@H](O)CC[C@@]2(C)[C@@H]1C/C=C1/C(=O)OC[C@H]1O [ADR, andrographolide] please.
### Response 1.76

====

Run Description: Oil-water partition coefficient (Log P)
Format: physicochemical
Stated Conditions: pH 4, pH4.0, 25℃
Property Label: logP
Reply with the value as a number alone.

### Prompt # logP lookup, item C=C1CC[C@@H]2[C@](C)(CO)[C@H](O)CC[C@@]2(C)[C@@H]1C/C=C1/C(=O)OC[C@H]1O [ADR, andrographolide]
### Response 1.85

====

Run Description: Pharmacokinetic study after gavage
Type: in vivo
Stated Conditions: rat, po; SD rats, 50 mg/kg by gavage, plasma; read-out: Vz/F
Property Label: Vd/F (L/kg)
API: value field is a number in L/kg; no unit string.

### Prompt Which value of Vd/F has been reported for C=C1CC[C@@H]2[C@](C)(CO)[C@H](O)CC[C@@]2(C)[C@@H]1C/C=C1/C(=O)OC[C@H]1O [ADR, andrographolide] in the records?
### Response 161

====

Run Description: Oil-water partition coefficient (Log P)
Type: physicochemical
Stated Conditions: pH 6.8, pH6.8, 25℃
Property Label: logP

### Prompt I have this compound here, C=C1CC[C@@H]2[C@](C)(CO)[C@H](O)CC[C@@]2(C)[C@@H]1C/C=C1/C(=O)OC[C@H]1O [ADR, andrographolide] , and I need its recorded logP.
### Response 1.88

====

Run Description: Saturated solubility study (shaking 24 h, HPLC)
Type: physicochemical
Stated Conditions: hydrochloric acid aqueous solution, 37 °C, pH 1.2, simulated gastric fluid, thermodynamic from solid, pH1.2 (HCl), read-out: Saturation solubility
Property Label: solubility at 24 h (µg/mL)
Value expressed in µg/mL; do not type the unit.

### Prompt # get_value(readout='solubility at 24 h', item= C=C1CC[C@@H]2[C@](C)(CO)[C@H](O)CC[C@@]2(C)[C@@H]1C/C=C1/C(=O)OC[C@H]1O [ADR, andrographolide] )
### Response 38.2

====

Run Description: Saturated solubility study (shaking 24 h, HPLC)
Type: physicochemical
Stated Conditions: purified water, 37℃; read-out: Saturation solubility
Property Label: solubility at 24 h (µg/mL)
Give the quantity in µg/mL, number only.

### Prompt Any idea what its solubility at 24 h is? The molecule is C=C1CC[C@@H]2[C@](C)(CO)[C@H](O)CC[C@@]2(C)[C@@H]1C/C=C1/C(=O)OC[C@H]1O [ADR, andrographolide]
### Response 40.8

====

Run Description: Oil-water partition coefficient (Log P)
Format: physicochemical
Stated Conditions: pH 6.8, pH6.8, 37℃
Property Label: logP
Write no unit; give the number alone.

### Prompt Any idea what its logP is? The compound is C=C1CC[C@@H]2[C@](C)(CO)[C@H](O)CC[C@@]2(C)[C@@H]1C/C=C1/C(=O)OC[C@H]1O [ADR, andrographolide]
### Response 1.94

====

Run Description: Pharmacokinetic study after gavage
Type: in vivo
Stated Conditions: rat, po; SD rats, 50 mg/kg by gavage, plasma
Experimental: We explored oral absorption enhancing ability of andrographolide nanocrystals by operating pharmacokinetic studies on SD rat. […] The andrographolide concentrations in plasma samples were detected after treatments as following: 50 μL plasma samples, 25 μL luteolin solution (internal standard 10.11 μg/mL) and 200 μL methanol solution were mixed by vortexing for 5 min. […] Andrographolide was analyzed at 225 nm using HPLC linked to a Ultimate^Ⓡ XB-C18 (4.6 mm ×250 mm, 5μm) column. […]
Property Label: AUC(0-t) (ng·h/mL)
Answer format: numeric, ng·h/mL implied, no suffix.

### Prompt Would you mind telling me what AUC(0-t) value was observed for C=C1CC[C@@H]2[C@](C)(CO)[C@H](O)CC[C@@]2(C)[C@@H]1C/C=C1/C(=O)OC[C@H]1O [ADR, andrographolide] ?
### Response 1290

====

Run Description: Pharmacokinetic study after gavage
Format: in vivo
Stated Conditions: rat, po; SD rats, 50 mg/kg by gavage, plasma; read-out: MRT0-t
Property Label: MRT last (h)
Just the number please, in h, no unit attached.

### Prompt What MRT last value was documented for this compound, C=C1CC[C@@H]2[C@](C)(CO)[C@H](O)CC[C@@]2(C)[C@@H]1C/C=C1/C(=O)OC[C@H]1O [ADR, andrographolide] ?
### Response 5.66

====

Run Description: Oil-water partition coefficient (Log P)
Type: physicochemical
Stated Conditions: pH 1.2, pH1.2, 25℃
Property Label: logP
Returns: the value as a bare number; no unit string appended.

### Prompt Endpoint output: logP of C=C1CC[C@@H]2[C@](C)(CO)[C@H](O)CC[C@@]2(C)[C@@H]1C/C=C1/C(=O)OC[C@H]1O [ADR, andrographolide] . Value?
### Response 1.85

====

Run Description: Oil-water partition coefficient (Log P)
Type: physicochemical
Stated Conditions: pH 4, pH4.0, 37℃
Property Label: logP
Write no unit; give the number alone.

### Prompt // logP lookup, key: C=C1CC[C@@H]2[C@](C)(CO)[C@H](O)CC[C@@]2(C)[C@@H]1C/C=C1/C(=O)OC[C@H]1O [ADR, andrographolide]
### Response 1.87

====

Run Description: Pharmacokinetic study after gavage
Type: in vivo
Stated Conditions: rat, po; SD rats, 50 mg/kg by gavage, plasma
Property Label: Tmax (min)
Write down the numeric answer in min and omit the unit.

### Prompt Can you look up the measured Tmax of C=C1CC[C@@H]2[C@](C)(CO)[C@H](O)CC[C@@]2(C)[C@@H]1C/C=C1/C(=O)OC[C@H]1O [ADR, andrographolide] for me?
### Response 43

====

Run Description: Saturated solubility study (shaking 24 h, HPLC)
Format: physicochemical
Stated Conditions: citrate - disodium hydrogen phosphate buffer, 37 °C, pH 4, aqueous buffer, thermodynamic from solid, pH4.0 (C-DHPB), read-out: Saturation solubility
Protocol: Briefly, excess formulation powders were added into 5 mL buffers, and shaked at 37 °C for 24 h, then the undissolved drug was removed by centrifuging at 13, 000 rpm for 10 min and filtering with 0.22 μm microporous membrane. The drug concentration in the filtrate was determined by HPLC. […] ADR was analyzed at 225 nm and at 35 °C using HPLC linked to Ultimate^Ⓡ XB-C18 (4.6 mm × 250 mm, 5 μm) column. […]
Property Label: solubility at 24 h (µg/mL)
Enter your answer as a number in µg/mL; do not include the unit.

### Prompt Value lookup for solubility at 24 h; key = C=C1CC[C@@H]2[C@](C)(CO)[C@H](O)CC[C@@]2(C)[C@@H]1C/C=C1/C(=O)OC[C@H]1O [ADR, andrographolide]
### Response 37.7

src = paper PMC9718561
